# Species: Rattus norvegicus
# measurement-description: Ratio of distribution of the [131I]-labeled compound at 5 min in rat lung over uptake in blood
# Format: ADME, organism-based
# condition-summary: other tissue
Listed below: Ratio values for each entry.

| compound | Ratio |
| --- | --- |
| CCN(CC)C(C)Cc1cc(OC)c(I)cc1OC (configuration not stated) | 29 |
| COc1cc(CC(C)NCC#N)c(OC)cc1I (configuration not stated) | 24 |
| COc1cc(CC(C)NN)c(OC)cc1I (configuration not stated) | 2.4 |
| COc1cc(CC(C)N)c(OC)cc1I (configuration not stated) | 47 |
| COc1cc(CC(C)NO)c(OC)cc1I (configuration not stated) | 12 |
| COc1cc(CC(C)NCCCN(C)C)c(OC)cc1I (configuration not stated) | 34 |
| COc1cc(CC(C)NCc2ccccc2)c(OC)cc1I (configuration not stated) | 69 |

###

# Organism: Rattus norvegicus
# measurement-description: Ratio of distribution of the [131I]-labeled compound at 5 min in rat brain over uptake in blood
# Assay type: ADME, organism-based
Binning of Ratio into classes: group A: < 1; group B: ≥ 1 and < 4; group C: ≥ 4

| compound | assigned-label |
| --- | --- |
| COc1cc(CC(C)N(C)Cc2ccccc2)c(OC)cc1I (stereo not given) | group B |
| COc1cc(CC(C)N(C)C(C)C)c(OC)cc1I (stereo not given) | group A |
| COc1cc(CC(C)NO)c(OC)cc1I (stereo not given) | group B |
| COc1cc(CC(C)N)c(OC)cc1I (stereo not given) | group C |
| COc1cc(CC(C)NCC2CC2)c(OC)cc1I (stereo not given) | group B |
| CCN(CC)C(C)Cc1cc(OC)c(I)cc1OC (stereo not given) | group C |
| COc1cc(CC(C)NCCCN(C)C)c(OC)cc1I (stereo not given) | group A |
| CCCCCCNC(C)Cc1cc(OC)c(I)cc1OC (stereo not given) | group B |
| CCCCCCCCCCCCNC(C)Cc1cc(OC)c(I)cc1OC (stereo not given) | group A |
| COc1cc(CC(C)NCC#N)c(OC)cc1I (stereo not given) | group B |
| COc1cc(CC(C)NC(C)C)c(OC)cc1I (stereo not given) | group B |
| COc1cc(CC(C)NCc2ccccc2)c(OC)cc1I (stereo not given) | group C |
| COc1cc(CC(C)N(C)C)c(OC)cc1I (stereo not given) | group C |

###

# Organism: Rattus norvegicus
# measurement-description: The distribution of the 131 I-labeled compound at 30 min was evaluated in rat kidney as Percent of injected dose in the total organ
# Type: ADME, organism-based
# condition-summary: in vivo, 0.5 h
Quick list: Dose per entry.
observed-property: Dose

| compound | result |
| --- | --- |
| COc1cc(CC(C)NN)c(OC)cc1I (centres undefined) | 1.5% |
| COc1cc(CC(C)N(C)Cc2ccccc2)c(OC)cc1I (centres undefined) | 1.3% |
| COc1cc(CC(C)NCC2CC2)c(OC)cc1I (centres undefined) | 1.7% |
| CCN(CC)C(C)Cc1cc(OC)c(I)cc1OC (centres undefined) | 1.1% |
| COc1cc(CC(C)NCC#N)c(OC)cc1I (centres undefined) | 2.2% |
| COc1cc(CC(C)NCCCN(C)C)c(OC)cc1I (centres undefined) | 5.7% |
| COc1cc(CC(C)N(C)C(C)C)c(OC)cc1I (centres undefined) | 1.1% |
| COc1cc(CC(C)N)c(OC)cc1I (centres undefined) | 2.8% |
| COc1cc(CC(C)N(C)C)c(OC)cc1I (centres undefined) | 2.4% |

###

# Species on record: Rattus norvegicus
# measurement-description: Ratio of distribution of the [131I]-labeled compound at 30 min in rat lung over uptake in blood
# Format: ADME, organism-based
# condition-summary: other tissue, 0.5 h
observed-property: Ratio

| compound | result |
| --- | --- |
| CCCCCCNC(C)Cc1cc(OC)c(I)cc1OC (stereo not given) | 25 |
| CCN(CC)C(C)Cc1cc(OC)c(I)cc1OC (stereo not given) | 20 |
| COc1cc(CC(C)N(C)C(C)C)c(OC)cc1I (stereo not given) | 0.72 |
| COc1cc(CC(C)NCC2CC2)c(OC)cc1I (stereo not given) | 26 |
| COc1cc(CC(C)NCc2ccccc2)c(OC)cc1I (stereo not given) | 25 |
| COc1cc(CC(C)NCCCN(C)C)c(OC)cc1I (stereo not given) | 77 |
| COc1cc(CC(C)NCC#N)c(OC)cc1I (stereo not given) | 15 |
| CCCCCCCCCCCCNC(C)Cc1cc(OC)c(I)cc1OC (stereo not given) | 8.1 |
| COc1cc(CC(C)NC(C)C)c(OC)cc1I (stereo not given) | 12 |
| COc1cc(CC(C)N)c(OC)cc1I (stereo not given) | 46 |
| COc1cc(CC(C)N(C)C)c(OC)cc1I (stereo not given) | 15 |
| COc1cc(CC(C)N(C)Cc2ccccc2)c(OC)cc1I (stereo not given) | 7.8 |
| COc1cc(CC(C)NN)c(OC)cc1I (stereo not given) | 1.5 |
| COc1cc(CC(C)NO)c(OC)cc1I (stereo not given) | 21 |
| CNC(C)Cc1cc(OC)c(I)cc1OC (stereo not given) | 11.4 |

###

Reported Dose is given for each of the following molecules.
# Species: Rattus norvegicus
# measurement-description: The distribution of the 131 I-labeled compound at 5 min was evaluated in rat brain as Percent of injected dose per gram in the organ
# Format: ADME, organism-based
# condition-summary: in vivo
observed-property: Dose

| molecule | observed-property | result |
| --- | --- | --- |
| COc1cc(CC(C)NCCCN(C)C)c(OC)cc1I (stereo not drawn) | Dose | 0.03% |
| COc1cc(CC(C)NC(C)C)c(OC)cc1I (stereo not drawn) | Dose | 0.66% |
| COc1cc(CC(C)N(C)C)c(OC)cc1I (stereo not drawn) | Dose | 1.8% |
| CNC(C)Cc1cc(OC)c(I)cc1OC (stereo not drawn) | Dose | 0.57% |
| CCN(CC)C(C)Cc1cc(OC)c(I)cc1OC (stereo not drawn) | Dose | 0.39% |
| COc1cc(CC(C)N)c(OC)cc1I (stereo not drawn) | Dose | 0.34% |
| COc1cc(CC(C)NCc2ccccc2)c(OC)cc1I (stereo not drawn) | Dose | 0.64% |
| COc1cc(CC(C)NCC2CC2)c(OC)cc1I (stereo not drawn) | Dose | 0.33% |
| COc1cc(CC(C)N(C)Cc2ccccc2)c(OC)cc1I (stereo not drawn) | Dose | 0.15% |
| CCCCCCNC(C)Cc1cc(OC)c(I)cc1OC (stereo not drawn) | Dose | 0.37% |
| COc1cc(CC(C)NCC#N)c(OC)cc1I (stereo not drawn) | Dose | 0.3% |
| COc1cc(CC(C)NN)c(OC)cc1I (stereo not drawn) | Dose | 0.37% |
| COc1cc(CC(C)N(C)C(C)C)c(OC)cc1I (stereo not drawn) | Dose | 0.12% |

###

# Organism: Rattus norvegicus
# measurement-description: Ratio of distribution of the [131I]-labeled compound at 5 min in rat lung over uptake in blood
# Assay type: ADME, organism-based
# condition-summary: other tissue

| compound | Ratio |
| --- | --- |
| CCCCCCNC(C)Cc1cc(OC)c(I)cc1OC (stereo not drawn) | 47 |
| COc1cc(CC(C)NC(C)C)c(OC)cc1I (stereo not drawn) | 31 |
| COc1cc(CC(C)NCC2CC2)c(OC)cc1I (stereo not drawn) | 65 |
| CNC(C)Cc1cc(OC)c(I)cc1OC (stereo not drawn) | 42 |
| COc1cc(CC(C)N(C)C(C)C)c(OC)cc1I (stereo not drawn) | 1.1 |
| COc1cc(CC(C)N(C)C)c(OC)cc1I (stereo not drawn) | 16 |
| COc1cc(CC(C)N(C)Cc2ccccc2)c(OC)cc1I (stereo not drawn) | 6.3 |
| CCCCCCCCCCCCNC(C)Cc1cc(OC)c(I)cc1OC (stereo not drawn) | 13 |

###

# Organism: Rattus norvegicus
# measurement-description: Ratio of distribution of the [131I]-labeled compound at 30 min in rat liver over uptake in blood
# Assay type: ADME, organism-based
# condition-summary: other tissue, 0.5 h
Binary label based on Ratio with cut-off 6: below gives YES, not below gives NO.

| molecule | assigned-label |
| --- | --- |
| COc1cc(CC(C)NO)c(OC)cc1I (stereo not given) | YES |
| COc1cc(CC(C)NCCCN(C)C)c(OC)cc1I (stereo not given) | NO |
| CCCCCCNC(C)Cc1cc(OC)c(I)cc1OC (stereo not given) | NO |
| COc1cc(CC(C)NCC2CC2)c(OC)cc1I (stereo not given) | NO |
| COc1cc(CC(C)NCC#N)c(OC)cc1I (stereo not given) | NO |
| COc1cc(CC(C)NN)c(OC)cc1I (stereo not given) | YES |
| COc1cc(CC(C)N(C)Cc2ccccc2)c(OC)cc1I (stereo not given) | NO |
| CCN(CC)C(C)Cc1cc(OC)c(I)cc1OC (stereo not given) | NO |
| COc1cc(CC(C)NC(C)C)c(OC)cc1I (stereo not given) | YES |
| CCCCCCCCCCCCNC(C)Cc1cc(OC)c(I)cc1OC (stereo not given) | YES |
| COc1cc(CC(C)N(C)C)c(OC)cc1I (stereo not given) | NO |
| COc1cc(CC(C)N)c(OC)cc1I (stereo not given) | NO |
| COc1cc(CC(C)NCc2ccccc2)c(OC)cc1I (stereo not given) | YES |
| CNC(C)Cc1cc(OC)c(I)cc1OC (stereo not given) | NO |
| COc1cc(CC(C)N(C)C(C)C)c(OC)cc1I (stereo not given) | YES |
